Source of measurements: paper PMC8000919

TEST_PROTOCOL: Exploratory plasma pharmacokinetics in mice after single i.p. administration, non-compartmental analysis
Type: in vivo
EXPERIMENTAL_SETUP: male, C57BL/6, mouse, ip; mice plasma, single dose 20 mg/kg body weight
Protocol: The practicability of the validated method for SH045 quantification was verified in a first exploratory pharmacokinetic study in mice. […] The area under the plasma concentration-time curve (AUC) for the time (t) providing the final measurable concentration (AUClast) was calculated using the log-linear trapezoidal rule. The AUC0–∞ was then determined as AUClast + Clast/ʎz, where Clast is the last measurable concentration. […] The volume of distribution, VZ, was calculated as CLp/ʎz. […]
RESULT_TYPE: AUC(0-inf) (ng·h/mL)
# unit: ng·h/mL | format: bare number

compound `C=C[C@@](C)(O)CC[C@H]1C(=C)C[C@H](OC(=O)NC)[C@H]2C(C)(C)CCC[C@]12C` , AUC(0-inf) observed: 1470

====

TEST_PROTOCOL: Exploratory plasma pharmacokinetics in mice after single i.p. administration, non-compartmental analysis
Type: in vivo
EXPERIMENTAL_SETUP: male, C57BL/6, mouse, ip; mice plasma, single dose 20 mg/kg body weight
RESULT_TYPE: AUC(0-t) (ng·h/mL)
Write the value in ng·h/mL as a bare number.

// AUC(0-t) value for `C=C[C@@](C)(O)CC[C@H]1C(=C)C[C@H](OC(=O)NC)[C@H]2C(C)(C)CCC[C@]12C` : 1410

====

TEST_PROTOCOL: Exploratory plasma pharmacokinetics in mice after single i.p. administration, non-compartmental analysis
Format: in vivo
EXPERIMENTAL_SETUP: male, C57BL/6, mouse, ip; mice plasma, single dose 20 mg/kg body weight
RESULT_TYPE: MRT (h)
Note: unit h is implicit; provide only the numeric part.

Summary for this compound, `C=C[C@@](C)(O)CC[C@H]1C(=C)C[C@H](OC(=O)NC)[C@H]2C(C)(C)CCC[C@]12C` : MRT is 1.9

====

TEST_PROTOCOL: Plasma protein binding (PPB) by ultrafiltration
Type: in vitro ADME
EXPERIMENTAL_SETUP: mouse plasma, 100 ng/mL SH045, ultrafiltration
RESULT_TYPE: fraction unbound at 30 min, 100 ng/mL

The compound identified as C=C[C@@](C)(O)CC[C@H]1C(=C)C[C@H](OC(=O)NC)[C@H]2C(C)(C)CCC[C@]12C [SH045] registered its fraction unbound at 30 min, 100 ng/mL at 0.022

====

TEST_PROTOCOL: Exploratory plasma pharmacokinetics in mice after single i.p. administration, non-compartmental analysis
Assay type: in vivo
EXPERIMENTAL_SETUP: male, C57BL/6, mouse, plasma, ip, 20 mg/kg, mice plasma, single dose 20 mg/kg body weight
RESULT_TYPE: half-life (h)
# value in h; strip the unit string

Looking up C=C[C@@](C)(O)CC[C@H]1C(=C)C[C@H](OC(=O)NC)[C@H]2C(C)(C)CCC[C@]12C [SH045] , I see its half-life listed as 1.3

====

TEST_PROTOCOL: Plasma protein binding (PPB) by ultrafiltration
Type: in vitro ADME
EXPERIMENTAL_SETUP: mouse plasma, 800 ng/mL SH045, ultrafiltration
RESULT_TYPE: fraction unbound at 30 min, 800 ng/mL

fraction unbound at 30 min, 800 ng/mL for `C=C[C@@](C)(O)CC[C@H]1C(=C)C[C@H](OC(=O)NC)[C@H]2C(C)(C)CCC[C@]12C` is 0.003

====

TEST_PROTOCOL: Exploratory plasma pharmacokinetics in mice after single i.p. administration, non-compartmental analysis
Assay type: in vivo
EXPERIMENTAL_SETUP: male, C57BL/6, mouse, ip; mice plasma, single dose 20 mg/kg body weight
RESULT_TYPE: Cmax (ng/mL)
Quick note: give the figure in ng/mL, leave out the unit.

Cmax reading for `C=C[C@@](C)(O)CC[C@H]1C(=C)C[C@H](OC(=O)NC)[C@H]2C(C)(C)CCC[C@]12C` : 756
